molecular target: DRal (Drosophila Ral), GST-DRal (Drosophila melanogaster, UniProt P48555); assay: [3H]GDP binding to GST fusion protein
Sequence (P48555 whole entry, the tested form may be a part): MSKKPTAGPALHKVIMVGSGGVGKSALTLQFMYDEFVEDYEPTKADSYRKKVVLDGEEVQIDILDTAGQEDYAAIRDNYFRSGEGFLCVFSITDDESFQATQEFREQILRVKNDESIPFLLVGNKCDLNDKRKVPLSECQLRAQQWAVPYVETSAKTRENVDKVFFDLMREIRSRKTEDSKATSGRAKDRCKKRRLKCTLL
test readout: Kd

[in] # returns recorded Kd (system: DRal (Drosophila Ral), GST-DRal (Drosophila melanogaster, UniProt P48555)) for `Nc1nc2c(ncn2[C@@H]2O[C@H](COP(=O)(O)OP(=O)(O)O)[C@@H](O)[C@H]2O)c(=O)[nH]1`
[out] 14 nM

---

biological target: DRal (Drosophila Ral), GST-DRal (Drosophila melanogaster, UniProt P48555, S25N); assay: […]GTPγS binding to GST fusion protein
Sequence (P48555 whole entry S25N, the tested form may be a part): as the sequence (P48555 whole entry, the tested form may be a part) above, with S25N counted along it
test readout: Kd (nM)
# output: bare number, implied unit nM

[in] Suppose we examine the compound `Nc1nc2c(ncn2[C@@H]2O[C@H](COP(=O)(O)OP(=O)(O)OP(O)(O)=S)[C@@H](O)[C@H]2O)c(=O)[nH]1` ; what Kd value has been reported?
[out] 406

---

biological target: DRal (Drosophila Ral), GST-DRal (Drosophila melanogaster, UniProt P48555, S25N); experiment: [3H]GDP binding to GST fusion protein
test readout: pKd
// pKd is dimensionless: -log10 of concentration (M)

[in] Need pKd, item `Nc1nc2c(ncn2[C@@H]2O[C@H](COP(=O)(O)OP(=O)(O)O)[C@@H](O)[C@H]2O)c(=O)[nH]1`
[out] 7.02

---

target: DRal (Drosophila Ral), GST-DRal (Drosophila melanogaster, UniProt P48555); assay: […]GTPγS binding to GST fusion protein
test readout: Kd (µM)
Output spec: scalar in µM, unitless text.

[in] Look up Kd for this compound: `Nc1nc2c(ncn2[C@@H]2O[C@H](COP(=O)(O)OP(=O)(O)OP(O)(O)=S)[C@@H](O)[C@H]2O)c(=O)[nH]1`
[out] 0.0307
